- ASSAY_SUMMARY: endothelial E-selectin expression blockers – imaging, HUVEC, immunofluorescence, MLSMR starter and 10KST1 sets, primary screen (AID 487);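 for nuclei count: 100% = median nuclei count of all wells on the same plate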
- EXPERIMENTAL_CONDITIONS: HUVEC TNFalpha-induced E-selectin immunofluorescence imaging, at 2 µM; measured here: cell number, toxicity
Quick reference: nuclei count of the listed items.
ASSAY_READOUT: nuclei count (%)

molecule=CC(C)(C)c1cc(NS(=O)(=O)c2ccc3c(c2)OCCO3)on1 observed=167
molecule=CCn1cnc2cc(NCc3cccc(OC)c3O)ccc21 observed=88
molecule=CCc1nnc(NC(=O)CSc2nnc(-c3ccccc3OC)n2-c2ccccc2)s1 observed=128
molecule=COc1cccc(OC)c1C(=O)N1CCN(S(=O)(=O)c2ccccc2)CC1 observed=102
molecule=Cc1ccc(C)n1-c1ccc(-n2cnnn2)cc1 observed=50.8
molecule=COc1ccc(CC(=O)OCC(=O)NC(=O)NC2CCCCC2)cc1 observed=121
molecule=Cc1ccc(C)n1NC(=O)c1ccco1 observed=109
molecule="C=CCNC(=O)C1CC(=O)N(c2ccc(OCC(=O)Nc3ccc(OC)cc3)cc2)C1 (stereo unspecified)" observed=128
molecule=O=C(CN1CCN(c2nc(-c3ccccc3)cs2)CC1)Nc1ccc2c(c1)OCO2 observed=146
molecule=Cc1ccc(NC(=O)COC(=O)c2ccn(C)n2)cc1 observed=109
molecule=COc1cc(SC)ccc1C(=O)Nc1ccccc1C#N observed=111
molecule=CN(CC(=O)Nc1cccnc1)S(=O)(=O)c1cc(Cl)ccc1Cl observed=98.2
molecule=CCOc1cc(NC(=O)c2ccccn2)c(OCC)cc1NC(=O)CC(C)C observed=119
molecule="Cc1cc(N2C(=O)CC(N3CCN(c4ccc(C(=O)c5cccs5)cc4)CC3)C2=O)no1 (stereo unspecified)" observed=93.1
molecule="COc1ccccc1CC(=O)NCC1CCCO1 (stereo unspecified)" observed=130
molecule=O=C(CSc1nnc(Cc2ccccc2)n1-c1cccc(Cl)c1)N1CCOCC1 observed=119
molecule=CC1=C/C(=C/N(C)c2ccccc2)C(=O)S1 observed=88.1
molecule=O=C(CN1CCOCC1)Nc1cccc(C(=O)Nc2cccc(C(F)(F)F)c2)c1 observed=89.1
molecule="Cc1[nH]n(C(N)=S)c(=O)c1C(c1ccccc1)C(C#N)C#N (stereo unspecified)" observed=99.1
molecule=CCOC(=O)c1c(NC(=O)OC)sc2c1CCC2 observed=125
molecule=COc1ccc(C(=O)NCc2nc3ccccc3[nH]2)cc1OC observed=112

----------
- ASSAY_SUMMARY: TLR3 IRF3 reporter activation blockers – cell-based, poly I:C stimulus, luciferase, 10K MLSCN set, primary screen (AID 602277)
- EXPERIMENTAL_CONDITIONS: HEK293-TLR3 RL24 IRF3 luciferase reporter, at 10 µM, stronger effect = higher value
ASSAY_READOUT: inhibition (%)

compound="CN1C(=O)C(O)(CC(=O)c2ccc(F)cc2)c2cc(Br)ccc21 (configuration not stated)" observed=41.2
compound=CCn1c(=O)cc(OCC(=O)Nc2cc(C)ccn2)c2ccccc21 observed=21.3
compound="CCOP(=O)(c1ccc(N(C)C)cc1)C(O)c1c(Cl)cccc1Cl (configuration not stated)" observed=19.2
compound=CCOc1ccc2oc(-c3ccccc3)c(C(=O)N3CCN(CCO)CC3)c2c1 observed=34
compound=Cn1c(=O)[nH]c(=O)c2c1nc(N1CCCCCC1)n2CCCSc1nc2ccccc2o1 observed=9.47
compound=COc1ccc(-c2noc(CCCOc3ccccc3)n2)cc1OC observed=-9.66
compound=CN1CCN(S(=O)(=O)c2ccc(Sc3nnc(-c4cccs4)n3-c3ccccc3)nc2)CC1 observed=4.54

----------
- ASSAY_SUMMARY: inhibitors of larval lipid processing in zebrafish, primary screen, whole organism, PED6 fluorescence, gall bladder and intestine (AID 686);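 note: larvae 5 to 7 days old with five fish per well; signal comes from phospholipase A2 cleavage of quenched PED6 carried via bile; overnight exposure to compound and PED6 before scoring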
- EXPERIMENTAL_CONDITIONS: Zebrafish larvae PED6 lipid processing, fluorescence scoring; screened at 20 µM (by protocol)
Activity calls are given as the source filed them.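 How the source made its calls: active means a full or partial loss of lipid-probe fluorescence in the fish gall bladder, intestine or both, judged by eye; inactive means no fluorescence loss, or compound toxic to the fish.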
Outcomes: True (active), False (inactive)

molecule=COc1ccccc1OCc1nc2ccccc2[nH]1 class=False
molecule=CC(C)n1nnnc1SCC(=O)Nc1ccccc1N1CCOCC1 class=False
molecule=COC(=O)CSc1nnc(CSc2nc(C)cc(C)n2)n1Cc1ccco1 class=False
molecule=COc1ccc(NC(=O)Nc2ccccc2C)c(OC)c1 class=False
molecule=COc1ccc(-c2noc(CSc3nc4ccccc4c(=O)n3-c3ccccc3)n2)cc1OC class=False
molecule=CC(=O)Nc1c(O)n(C)c2ccccc12 class=False
molecule="Cc1ccc2cc(C(c3nnnn3C3CCCC3)N3CCN(c4ccc(F)cc4)CC3)c(=O)[nH]c2c1 (configuration not stated)" class=False
molecule=COc1ccc(NC(=O)CSc2ccccn2)cc1OC class=False
molecule=CCOC(=O)N1CCN(C(=O)c2cnn(-c3ccccc3)c2NC(=O)c2ccccc2F)CC1 class=False
molecule=CCn1c(=N)n(CC(=O)c2ccco2)c2ccccc21 class=False
molecule=CCNc1ccc(S(=O)(=O)C(F)(F)F)cc1NC(=O)C12CCC(CC1)C2 class=False
molecule=COc1ccc(OC)c(NC(=O)CSc2nnc(-c3ccco3)n2-c2ccccc2)c1 class=False
molecule=COc1ccc(-n2nc3cc(C)c(N)c(Br)c3n2)cc1 class=False
molecule=CCc1nnc(NC(=O)CSc2nnc3ncccn23)s1 class=False
molecule=Cc1onc(-c2c(F)cccc2Cl)c1C(=O)Nc1nc2c(s1)CCCC2 class=False
molecule=CN(C)C(=O)CSc1nnc2sc3ccccc3n12 class=False
molecule=COc1cc(-c2nc(S(=O)(=O)c3ccc(C)cc3)c(N(C)C)o2)cc(OC)c1OC class=False
molecule=Cc1ccc(C)n1-c1ccc(-n2cnnn2)cc1 class=False
molecule=CCC(=O)Oc1ccc(C/C(=N\O)c2ccc(O)cc2O)o1 class=False
molecule=CCOc1nc(NCCC2=CCCCC2)nc(N2CCOCC2)n1 class=False
molecule="CC1CC(C)CN(c2nc3c(c(=O)[nH]c(=O)n3C)n2CCCSc2nc3ccccc3s2)C1 (configuration not stated)" class=False
molecule=Cc1cc(=O)n2[nH]c(-c3ccc(Cl)cc3)cc2n1 class=False
molecule=COc1ccc(CCN(Cc2cc3cccc(C)c3[nH]c2=O)C(=O)N2CCCC2)cc1OC class=False
molecule="O=C(O)c1ccc(C2SCC(=O)N2Cc2ccccc2)cc1 (configuration not stated)" class=False
molecule=CCOC(=O)C1=C(c2ccccc2)N2CCS(=O)(=O)N=C2S1 class=False
molecule="Cn1c(C(=O)OC(C(=O)NC2CCCC2)c2cccnc2)cc2sccc21 (configuration not stated)" class=True
molecule=COc1cccc(OCc2nnc(SCC(=O)OCc3ccccc3)o2)c1 class=False
molecule=COC(=O)Cc1cc(=O)n(-c2ccccc2)[nH]1 class=False
molecule=O=C(CSCc1n[nH]c(=O)[nH]1)NCCOc1cccc(Oc2ccccc2)c1 class=False
molecule=Cc1ccc(C(=O)Nc2c(C(=O)N3CCOCC3)cnn2-c2ccccc2)cc1 class=False
molecule=O=C(Nc1cccc(OCC(=O)N2CCOCC2)c1)C1CCCCC1 class=False
molecule="CCOC(=O)C1CCCN(C(=O)Cc2ccc(OC)c(OC)c2)C1 (configuration not stated)" class=False

----------
- ASSAY_SUMMARY: reduction of polyQ htt aggregates in cells – imaging, exon1htt(103Q)mCFP cells, high-content imaging, primary screen (AID 483);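 note: compound exposure lasted 3 days before fixation; percent of the per-plate median nuclei count of sample wells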
- EXPERIMENTAL_CONDITIONS: exon1htt(103Q)mCFP cell line, aggregate imaging, at 2 µM; measured here: cell count, toxicity
ASSAY_READOUT: nuclei count (%)

compound="Cc1cn(C2CC3OCC3O2)c(=O)[nH]c1=O (centres undefined)" observed=98.5
compound="CC(=O)NC(C)C(=O)OCC(=O)Nc1ccc(Br)cc1 (centres undefined)" observed=112
compound=Nc1nnc(SCC(=O)N2CCN(c3ccccc3)CC2)n1-c1ccccc1 observed=99.4
compound=COc1ccc(C2=CC(=O)OC3(CCCCC3)O2)cc1 observed=99.3

----------
inhibition values for the molecules below.
- ASSAY_SUMMARY: endothelial E-selectin expression blockers – imaging, HUVEC, immunofluorescence, MLSMR starter and 10KST1 sets, primary screen (AID 487);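 for inhibition: signal is fraction of cell area covered by stained E-selectin grains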
- EXPERIMENTAL_CONDITIONS: HUVEC TNFalpha-induced E-selectin immunofluorescence imaging, at 2 µM; stronger effect = higher value
ASSAY_READOUT: inhibition (%)

molecule=Cc1ccc(Nc2nc(Oc3ccc(=O)[nH]n3)nc(N(C)C)n2)cc1 assay_readout=inhibition uom=% observed=-65.6
molecule=C(=N\n1cnnc1)/c1cccc(OCCOc2ccccc2)c1 assay_readout=inhibition uom=% observed=-33.2
molecule="CCC(C)OC(=O)c1[nH]c2c(c1C)C(=O)CC(c1ccc(N(C)C)cc1)C2 (centres undefined)" assay_readout=inhibition uom=% observed=-31.4
molecule="Cc1cccn2c(=O)c3cc(C#N)c(=NC(=O)c4cccnc4)n(CC4CCCO4)c3nc12 (centres undefined)" assay_readout=inhibition uom=% observed=-74.7
molecule="CCCC1(C(=O)OCC)NC(c2ccc(N(C)C)cc2)C2C(=O)N(c3ccccc3)C(=O)C21 (centres undefined)" assay_readout=inhibition uom=% observed=-15.1
molecule=CCN(C#N)c1nc(NC(C)C)nc(NC(C)C)n1 assay_readout=inhibition uom=% observed=-0.6
molecule=CCN(CC(=O)Nc1ccc2c(c1)OCCO2)Cc1cc(=O)oc2cc(C)c(C)cc12 assay_readout=inhibition uom=% observed=-2.6
molecule=CN(C)S(=O)(=O)N1CCN(S(=O)(=O)c2ccc(F)cc2)CC1 assay_readout=inhibition uom=% observed=-118
molecule=COc1ccccc1NC1=C(C)C(=O)CC1 assay_readout=inhibition uom=% observed=-5.6
molecule=O=C(c1cnc2n(c1=O)CCS2)N(C1CCCCC1)C1CCCCC1 assay_readout=inhibition uom=% observed=-47.3
molecule=O=C(O)c1ccc(S(=O)(=O)Cc2ccccc2)cc1 assay_readout=inhibition uom=% observed=-81.2
molecule=Cc1nc2ccccn2c1C(=O)NCCCN1CCOCC1 assay_readout=inhibition uom=% observed=11.8
molecule=CCn1c(SCC(=O)c2ccc(Cl)cc2)nnc1-c1ccoc1C assay_readout=inhibition uom=% observed=-69.1
molecule="CC1Cc2ccccc2N1Cc1cc(=O)n2ccsc2n1 (centres undefined)" assay_readout=inhibition uom=% observed=-157
molecule=CCN(C(=O)c1c(-c2ccccc2)noc1C)c1ccccc1 assay_readout=inhibition uom=% observed=-39.7
molecule=COc1ccc(Cc2nc(-c3ccc(Br)cc3)no2)cc1 assay_readout=inhibition uom=% observed=-17.5
molecule=CCN(CC)S(=O)(=O)c1ccc(Cl)c(C(=O)OC)c1 assay_readout=inhibition uom=% observed=8.3
molecule=Cc1cc(=O)oc2ccc(OCC(=O)N3CCC(C)CC3)cc12 assay_readout=inhibition uom=% observed=-41.1
molecule=CC(=O)Nc1ccc(-c2nn[nH]n2)cc1Cl assay_readout=inhibition uom=% observed=0.8
molecule=COc1ccc(OC)c(N2Cc3cc(C)c(C)cc3C2)c1 assay_readout=inhibition uom=% observed=-8.6
molecule="O=C(C1CCCO1)N1CCc2ccccc21 (centres undefined)" assay_readout=inhibition uom=% observed=-32.9
molecule=CCOC(=O)c1cccc(NC(=O)CSc2nc3cccnc3n2C)c1 assay_readout=inhibition uom=% observed=-14.2
molecule="O=C(C1COc2ccccc2O1)N1CCCC1 (centres undefined)" assay_readout=inhibition uom=% observed=-72.5
molecule="O=C(C1CC2CCC1C2)N1CCN(Cc2ccc3c(c2)OCO3)CC1 (centres undefined)" assay_readout=inhibition uom=% observed=-90.8
molecule=COc1ccc(Cl)c(NC(=O)NCCN2CCN(c3ccccc3)CC2)c1 assay_readout=inhibition uom=% observed=-12.8
molecule=CCN(CC(=O)O)S(=O)(=O)c1cc(Cl)ccc1Cl assay_readout=inhibition uom=% observed=-33.4
molecule=CCOc1ccc2ccccc2c1/C=N/n1cncn1 assay_readout=inhibition uom=% observed=-92.4
molecule=Cc1ccc(C(=O)Nc2c(C(=O)N3CCOCC3)cnn2-c2ccccc2)cc1 assay_readout=inhibition uom=% observed=-6.5
molecule=CC(C)(C)c1ccc(OCC(=O)O)cc1 assay_readout=inhibition uom=% observed=-36
molecule="O=C(O)C1CC=CCC1C(=O)Nc1cccc(F)c1 (centres undefined)" assay_readout=inhibition uom=% observed=0.8
molecule="COc1ccc2cc(CN(Cc3ccco3)C(c3nnnn3C3CCCCC3)C(C)C)c(=O)[nH]c2c1 (centres undefined)" assay_readout=inhibition uom=% observed=-147
molecule=COc1ccc(NS(=O)(=O)c2c(C)[nH]c(=O)[nH]c2=O)c(OC)c1 assay_readout=inhibition uom=% observed=-40.5
molecule="O=C(CN1C(=O)CC(c2ccco2)Sc2ccccc21)Nc1ccc2c(c1)OCCO2 (centres undefined)" assay_readout=inhibition uom=% observed=-69.7
molecule=COc1ccc2nc(NC(=O)CSc3nnc(-c4ccoc4C)n3C)sc2c1 assay_readout=inhibition uom=% observed=-28.8
